molecular target: Melanocortin receptor 4 (Homo sapiens) (UniProt P32245); assay: activators of MC4R beta-arrestin recruitment – cell-based, luminescence, agonist arm of biased-ligand search, primary screen (AID 540308); conditions: U2OS MC4R beta-arrestin complementation, at 8.9 µM, percent of melanotan II response, DMSO zero
Sequence (P32245 whole entry, looked up): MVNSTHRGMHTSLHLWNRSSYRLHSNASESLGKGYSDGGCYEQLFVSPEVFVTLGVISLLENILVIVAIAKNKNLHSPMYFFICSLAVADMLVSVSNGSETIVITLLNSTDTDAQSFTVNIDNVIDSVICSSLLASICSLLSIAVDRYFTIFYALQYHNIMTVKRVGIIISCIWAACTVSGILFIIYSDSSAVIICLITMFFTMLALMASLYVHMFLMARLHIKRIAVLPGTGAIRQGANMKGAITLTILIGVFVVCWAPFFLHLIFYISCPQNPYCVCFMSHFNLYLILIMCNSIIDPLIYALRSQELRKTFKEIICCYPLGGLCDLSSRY
Screen size: about 360,000 compounds; about 3,500 (0.97%) were called active.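 The calls were made as follows: active = activation above a per-plate cutoff, the mean activation of sample wells on that plate plus 3 SD (cut at about 8% in these data); inactive = the rest.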 The sample holds actives, similar compounds and a random draw of the others, so the mix is not that of the screen.
Respond using exactly one of the listed classes: Y (active), N (inactive)

Assay result, entry "Cc1csc(NC(=O)c2ccc(-c3ccc(Cl)cc3Cl)o2)n1" — outcome?
Y

And what about the compound "Cc1cccc(C)c1Cn1c(C)c(C(=O)NCc2cccc(Cl)c2)sc1=O" ?
N

Let us now turn to O=C(NCc1ccc(F)cc1)c1cc(C2CCCCN2C(=O)C2CCCCC2)on1 (stereo unspecified)
N

Please answer likewise for "CCc1nc2c(OCc3ccc(Cl)cc3Cl)cccn2c1N(C)C(=O)C(C)C"
N

Moving on to the next compound: "O=C(Nc1cccc2ncccc12)c1ccc(-c2ccc(Cl)cc2Cl)o1"
Y

And "CC1CCN(C(=S)c2ccc(-c3ccc(Cl)cc3Cl)o2)CC1" ?
N

* * *

target: Melanocortin receptor 4 (Homo sapiens) (UniProt P32245); assay: activators of MC4R beta-arrestin recruitment – cell-based, luminescence, agonist arm of biased-ligand search, primary screen (AID 540308); conditions: U2OS MC4R beta-arrestin complementation, at 8.9 µM, active compounds read high, percent of melanotan II response, DMSO zero
The whole screen tested about 360,000 compounds, of which about 3,500 (0.97%) were called active. The full list was thinned out, with actives kept by preference.
Measurement Name: activation (%)
Response body: numeric value in %, unit text excluded.

Return activation measured with Melanocortin receptor 4 (Homo sapiens) (UniProt P32245) given this compound: "COc1ccc2sc(-c3ccc(S(C)(=O)=O)cc3)c(C#Cc3cncn3C)c2c1"
35.2

Try this compound next: "CC(C)(C)C(=O)Nc1ccc(C(=O)N/N=C/c2ccccc2OC(=O)c2ccc(Cl)cc2Cl)cc1"
-0.61

Proceed to "Cc1ccc(C)c(N2CCN(C(=O)CCCCCn3c(=S)[nH]c4ccc(N5CCOCC5)cc4c3=O)CC2)c1"
-2.66

Moving on to O=C(NC(c1ccc(-c2ccccc2)cc1)c1cnccn1)C1CCN(CCOc2ccc(Cl)cc2Cl)CC1 (stereo not given)
18

Repeat with "O=C(Nc1ccccc1)c1ccccc1Br"
0.3

Param item: O=C(NC(c1ccc(Cl)cc1)c1cnccn1)C1CCN(Cc2ccc(Cl)cc2)CC1 (stereo not given)
-0.34

What would you report for "O=C(COc1ccc(/C=N/NC(=O)c2ccc(O)cc2)cc1)Nc1ccc([N+](=O)[O-])cc1" ?
2.23

Check "O=C(N/N=C/c1ccc(OC(=O)c2ccccc2Cl)cc1)c1ccc(O)cc1" too.
13.4

Now consider "COc1ccc(-c2sc3ccc(OC)cc3c2C#Cc2ccccn2)cc1" .
-2.74

Next entry: "COc1ccccc1CNc1nc(Nc2ccccc2Cl)c2sccc2n1"
0.15

* * *

biological target: Melanocortin receptor 4 (Homo sapiens); experiment: activators of MC4R beta-arrestin recruitment – cell-based, luminescence, agonist arm of biased-ligand search, primary screen (AID 540308); conditions: U2OS MC4R beta-arrestin complementation, at 8.9 µM, percent of melanotan II response, DMSO zero
In all, about 360,000 compounds went through this assay and about 3,500 (0.97%) were called active.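 Rule for the calls: active = activation above a per-plate cutoff, the mean activation of sample wells on that plate plus 3 SD (cut at about 8% in these data); inactive = the rest.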 The full list was thinned out, with actives kept by preference.
Please reply with one of these outcomes: active, inactive

Could you kindly confirm the outcome this assay logged for "CCCCCCCCCCOC(=O)Cn1c(COc2ccc(C)cc2)[n+](C)c2ccccc21" ?
active

Same lookup for CC1(C(=O)NS(=O)(=O)c2ccccc2)CCN1C(=O)C/C=C/c1ccccc1 (centres undefined) , please.
inactive

What do you get for CCCC(=O)N1CCC1(C)C(=O)Nc1ccc(-n2cncn2)cc1 (centres undefined) ?
inactive

"O=C(O)c1cscn1" ?
inactive

// repeat for "CCCCNC(=O)CSc1nc2n[nH]c(C)c2c(=N)n1-c1cccc(Cl)c1C" and report
inactive

// query: "CC=CCn1c(SCCCc2ccccc2)nc2c1c(=O)[nH]c(=O)n2C"
inactive

Further, for "Cc1[nH]c2ccccc2c1C(=O)COC(=O)c1c(-c2ccccc2)noc1C" ?
inactive

Now consider "O=C(/C=C/c1c(Cl)cccc1Cl)NCc1ccccc1" .
active

Same for COC(=O)c1cc(OCC(=O)NC2CCCc3ccccc32)cc(C(=O)OC)c1 (centres undefined)
inactive

Then what about the compound OC(c1ccc(F)cc1)c1ncc(-c2cccc(C(F)(F)F)c2)[nH]1 (centres undefined) ?
inactive

Please give the result for "CCCCCNC(=O)c1cccnc1SCC(=O)Nc1ccccc1OC" too.
inactive

Try this compound too: COC(=O)Cc1ccc(OC2(C)CCN(Cc3ccc4c(c3)OCCO4)C2)cc1 (centres undefined)
inactive

And CCOC(=O)C1(Cc2cccc(OC)c2)CCCN(C(=O)CCSC)C1 (centres undefined) ?
inactive

// repeat for "CCOC(=O)c1c(C)[nH]c(C(=O)NCCN2CCOCC2)c1C" and report
inactive

Note, next up: COc1ccc(NC(=O)C2(C)Cc3c(-c4cccc(NC(C)=O)c4)ccnc3O2)cc1 (centres undefined)
inactive

Lookup "Cn1c(-c2ccc(F)cc2)cnc1SCC(=O)NCc1ccco1"
inactive

Same lookup for "Clc1ccc(-c2cccc3nccn23)cc1" , please.
inactive

Cool, now COc1cccc(C(O)c2nc(-c3ccc(C)c(C)c3)cs2)c1 (centres undefined)
inactive

Note, next up: CCCNC(=O)C1(C)CCN1C(=O)Cc1ccc(-c2ccccc2)cc1 (centres undefined)
inactive

Then what about the compound COc1ccc(C(C)(NC(C)=O)c2nc(-c3ccc(S(C)(=O)=O)cc3)cs2)cc1 (centres undefined) ?
inactive

What about this compound? COc1ccc(CN2CCC(C)(Oc3cccc(F)c3)C2)c2ccccc12 (centres undefined)
inactive

Now this one: CC(C)c1ccc(CC(=O)N2CCC2(C)C(=O)NS(=O)(=O)c2ccc(C(C)(C)C)cc2)cc1 (centres undefined)
inactive

Quick one: "CCOC(=O)c1nn(-c2ccccc2F)c2nc(Nc3ccccc3)cc(=O)n12"
active

How about "Clc1ccc(Nc2ncnc3c2nnn3Cc2ccccc2)cc1" ?
active

What do we get for "CCOC(=O)N1CCN(c2c(NCCN3CCN(c4ccccc4F)CC3)c(=O)c2=O)CC1" ?
inactive

Request: "Fc1ccc(-c2csc(-c3ccc(C4SCCS4)cc3)n2)cc1F"
inactive

Could you do the same for Cc1ccc(C(O)c2ncc(-c3ccccc3F)[nH]2)cc1F (centres undefined) , please?
inactive

Next compound up: "CCOc1ccc(NC(=O)COc2ccc(C(=O)N3CCC(C(N)=O)CC3)cc2OC)cc1"
inactive

What about this compound? CC1(C(=O)NS(=O)(=O)Cc2cccc(Cl)c2)CCN1C(=O)Cc1ccccc1 (centres undefined)
inactive

Also "CCCCOc1ccc(NC(=O)CSCC(=O)OCC)cc1" , if possible.
inactive

Now try "CC(C)Oc1cc(F)ccc1-c1cc(C(=O)Nc2cccc(Cl)c2)[nH]n1" .
inactive

Next: COc1ccc(NC(=O)C2Cc3c(-c4ccc(Cl)cc4)ccnc3O2)cc1 (centres undefined)
inactive

Then this compound: "COc1ccc2ccccc2c1CNc1nnnn1C"
inactive

Record: "COc1ccc(C(C)C)cc1-c1ccc2nncn2c1"
inactive

Record: COc1ccc(NC(=O)C2(C)Cc3c(-c4ccc(C(N)=O)cc4)ccnc3O2)cc1 (centres undefined)
inactive

Okay, and "O=C(Nc1ccc(F)cc1)Nc1nnc([C@H]2C[C@H](O)[C@@H](CO)O2)s1" ?
inactive

Another compound to look at: "COc1ccc(Nc2cc(=O)oc3ccccc23)cc1"
inactive

Next compound up: Cc1nc(C(F)(F)F)ccc1C(=O)N1CCC1(C)C(=O)NS(=O)(=O)c1ccccc1 (centres undefined)
inactive

// query: "O=C(Nc1ccc(Cl)cc1)c1csc([C@H]2C[C@H](O)[C@@H](CO)O2)n1"
inactive

Further, for "O=C(CSc1ccccc1)Nc1nnc(/C=C/c2ccccc2)s1" ?
active

Moving on to the next compound: O=C(CSc1nc2ccccc2c(=O)n1Cc1ccc(F)cc1)NCC1CCCO1 (centres undefined)
inactive

Queued: "CCOCc1nnc(NC(=O)CSc2ccc(C)cc2)s1"
inactive

What do you get for CSc1ccc(CN2CCC2(C)C(=O)NCc2ccccc2Br)cc1 (centres undefined) ?
inactive

// repeat for CCCNC(=O)C1(C)CCCN(Cc2cccc(C(F)(F)F)c2)C1 (centres undefined) and report
inactive

* * *

target: Melanocortin receptor 4 (Homo sapiens); experiment: activators of MC4R beta-arrestin recruitment – cell-based, luminescence, agonist arm of biased-ligand search, primary screen (AID 540308); conditions: U2OS MC4R beta-arrestin complementation, at 8.9 µM, percent of melanotan II response, DMSO zero
Among all 360,000 compounds or so, about 3,500 (0.97%) were called active.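 The calls were made as follows: active = activation above a per-plate cutoff, the mean activation of sample wells on that plate plus 3 SD (cut at about 8% in these data); inactive = the rest.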 This is one part of a sample in which actives are shown more often than they occur.
Answer with one of the outcomes given here: T (active), F (inactive)

Outcome logged for "COc1ccc(CC(=O)Nc2c(C(N)=O)oc3ccccc23)cc1" in this assay:
F

Also, "CCN1CCN(CCNC(=O)c2ccc(/C=C3/Sc4ccccc4N(Cc4cccc(C)c4)C3=O)cc2)CC1" please.
T

Same again, this time with "N/C(=N\OC(=O)Cc1ccccc1[N+](=O)[O-])c1ccc(Br)cc1"
F

Same lookup for "CCc1nc2c(OCC(N)=O)cccn2c1N(C)C(=O)c1ccc(OC)cc1" , please.
F

Try "O=C(NCCc1ccc(Cl)cc1Cl)c1cc([N+](=O)[O-])c[nH]c1=O" next.
F

Please do the same for "OC[C@@H]1CN(Cc2ccc(F)cc2)C[C@H](n2cnc3c(NC4CCCC4)ncnc32)O1" as well.
F

// same read-out, input: "CCOc1ccc2c(c1)cc(CN(C(=O)CC)C1CCCCC1)c1nnnn12"
F

// same read-out, input: CC1(C(=O)NS(=O)(=O)c2ccccc2)CCN1C(=O)c1ccccc1 (stereo not given)
F

Try "N/C(=N\OC(=O)N1c2ccccc2Sc2ccccc21)c1ccc(Br)cc1" next.
T

Same for "CCc1ccc2c(c1)cc(CN(C(=S)Nc1ccccc1Cl)C1CC1)c1nnnn12"
T

Also "CCN1CCN(CCNC(=O)c2ccc3c(c2)NC(=O)/C(=C\c2cccc(Cl)c2)S3)CC1" ?
F

Same lookup for "Cc1ccccc1CN1C(=O)c2ccccc2Sc2ccc(C(=O)NCCCN3CCOCC3)cc21" , please.
F

What would you report for "O=C(NCCc1c[nH]c2ccc(Cl)cc12)c1ccc([N+](=O)[O-])cc1" ?
T

Subsequent entry: "COc1ccc(-c2cc3nc(NCCOc4ccccc4)ccn3n2)cc1"
F

Same lookup for "O=C(Nc1ccc(N2CCOCC2)cc1)c1cccc2c(-c3ccc(F)c(F)c3)coc12" , please.
F

Please answer likewise for CN1CCN(c2ncc3c(n2)CC(c2ccccc2F)CC3=O)CC1 (stereo not given)
F

Again, but for CCCCc1ccc(S(=O)(=O)NC(=O)C2(C)CCN2C(=O)c2c(C)noc2C)cc1 (stereo not given)
F

Try "Cc1ccc(C(=O)Nc2sc(Cc3ccc4c(c3)OCO4)c(C)c2C(N)=O)cc1" next.
F

Same question, "Cc1cc(O)ccc1-c1cc(C(=O)NCc2cc(C(F)(F)F)cc(C(F)(F)F)c2)[nH]n1" this time
F

What do you get for "Cc1ccc2[nH]cc(CCNC(=O)c3ccc([N+](=O)[O-])cc3)c2c1" ?
F
